All values here come from patent US7153881B2.

Each entry below carries its reported melting point.

CNC(=N)NN=Cc1cc([N+](=O)[O-])ccc1F :: 217 to 219 °C
N=C(NN=Cc1ccc2ccccc2c1)Nc1ccc2ccccc2c1 :: 218 to 220 °C
N=C(NN=Cc1ccc([N+](=O)[O-])cc1[N+](=O)[O-])Nc1ccccc1 :: 180 to 190 °C
CNC(=N)NN=Cc1ccc(OC)c(OC)c1Cl :: 207 to 210 °C

Reported melting point for COc1ccc(C=NNC(=N)NCc2ccccc2)c(Cl)c1OC : what is it?
215 to 217 °C

Query N=C(NN=Cc1cccn1-c1ccc(Cl)cc1)NN=Cc1cccn1-c1ccc(Cl)cc1 next
221 to 223 °C
